# Assay Protocol: yeast display, Sf9 membrane polyspecificity reagent, FACS + sequencing; frameworks hold sequencing errors
Property: polyreactivity (PSR sort gate)

Example sequences with recorded polyreactivity (PSR sort gate):
Chain Sequence	polyreactivity (PSR sort gate)
QVQLVESGGGLVQAGGSLRLSCAASGSTFAYYVMGWYRQAPGKERELVAAISRGGRTYYADSVKGRFTISRDNAKNTVYLQMNSLKPEDTAVYYCAKPYHQRSAKVDYWGQGTQVTVSS	low polyreactivity
QVQLVESGGGLVQAGGSLRLICAASGSTFLGYAMGWYRQAPGKERELVAAITYSAGSTYYADSVKGRFTISRDNAKNTVYLQMNSLKPEDTAVYYCAKRYSGYDHWGQGTQVTVSS	low polyreactivity
KVQLVESGGGLVQAGGSLRLSCAASGYIFSYYAMGWYRQAPGKERELVAAITASGGRTYYADSVKGRFTISRDNAKNTVYLQMNSQKPEDTAVYYCARASGIILQGQLVRWYRYNYLGQGTQVTVSS	high polyreactivity
QVQLVESGGGLVKAGGSLRLSCAASGNIFTSNAMGWYRQAPGKERELVAAITSGGSTYYADSVKGRFTISRDNAKNTVYLQMNSLKPEDTAVYYCATLPRPHLRPYYYWGQGTQVTVSS	high polyreactivity
QVQLVESGGGLVQAGGSLRLSCAASGRIFVKNAMGWNRQAPGKESELVAAISASGGSTYYADSVKGRFTISRDNAKNTVDLQMNSLKPEDTAVYYCAARRRAFGSTYNYWGQGTQVTVSS	high polyreactivity
QVQLVESGGGLVQAGGSLRLSCAASGRTFFVNAMGWYRQAPGKERELVATITFSGDSTYYADSVKGRFSISRDNAKNTVYLQMNSLKPEDTAVYYCAAYQGQKGYDYWGQGTQVTVSS	high polyreactivity

Reported polyreactivity (PSR sort gate) ( QVKLVESGGGLVQAGGSLRLSCAASGRIFYYYAMGWYRPAPGKERELVAGITTGGGTNYADSVKGRFTISRDNAKNTVYLQMNSLKPEDTAVYYCATGTEGYSDDYGYWGQGTQVTVSS ) = low polyreactivity

Record summary for QVQLEESRGGLVQAGGSLRLSCAASGSTFVINDMGWYRQAPGKETELVAAISKSGGRTYYADSVKGRFTISRDNATNTVYLQMNSLKPEDTAVYYCAAVSQRTRYGYWGQGTQVTVSS : reported polyreactivity (PSR sort gate) = high polyreactivity

----------
# Assay Protocol: yeast display, Sf9 membrane polyspecificity reagent, FACS + sequencing; frameworks hold sequencing errors
Property: polyreactivity (PSR sort gate)

Check out these entries, answers already filled in.
Chain Sequence	polyreactivity (PSR sort gate)
QVQLVESGGGLVQAGGSLRLSCAASGRTLEHNAMGWYRQAPGKERELVAAITDGGASTYYADSVKGRFTISRENAKNTVYLQMNSLKPEDTAVYYFAADTYPTTSEFDYWGQGTQVTVSS	low polyreactivity
QVQLVESGGGLVQAGGSLRLSCAASGSTFKDNAMGWYRLAPGKERELVARITYRGGRTYADSVKGRFTISRDNAKNTVFLQMNSLKPEDTAVYYCAARPSLYGHNSRYDYWGQGTQVTVSS	low polyreactivity
QVQLQESGGGLVQAGGSLRLSCAASGTISPLPAMGWYRQAPGKEPEFVAGIDTGAITNYADSVKGRFTISRDNAKNTVYLQMNSLKPEDTAVYYCAVFPAAYDYYERYYTYWGQGTQVTVIS	low polyreactivity
QVQLVESGGGLVQAGGSLRLSCAASGIIFAIYAMGWYRQAPGKESELVAAITWRGGSTYYADSVKGRFTISRDNAKNTVYLQRNSLKPEDTAVYYCDAVTKSLYGYDYWGQGSQVTVSS	low polyreactivity
QVQLVESGGGLVQAGGSLRLSCAASGRIFYYSAMGWSRQAPGIERELVAAITRRGGSTYYADSVKGRVTISRDNAKNTVFLQMNSLKPEDTEVYYSAKPDRTCWLDGDYWGQGSQVTVSS	low polyreactivity
QVQRVESGGGLVQEGRSLRLSCAASGFIFSVYAMGWYRQAQGKERELVAAMTWNGGRTYYADSVKGRFRISRDHAKNTVYLQMNSVKPEDTAVYYCAADSRGALNSVYRYGSIVEGDYWGQGTQVTVSS	low polyreactivity

Measured polyreactivity (PSR sort gate) of QVQLVESGGGLVQAGGSLRLRSPASGSTLYRYAMGWYRQAPGKERELVAAIYSSGGTTFYADSVKGRFTISRDNAKKTVYLQMKSLKPEDTAVYYCNRTARKLRTVHSSVVGLDYWGQGTQVTVSS : low polyreactivity

Value of measured polyreactivity (PSR sort gate) for the entry QVQLVESGGGLVQAGGSLRLSCAASGSILPLYAMGWYRQAPGKERELVATISNAGSTTYADSVKGRFTISRDNAKNTVYLQMNSLKPEDTAVYYCNAESEWGWVYVGYDYWGQGTQVTVSS : low polyreactivity

The sequence listed as QVQLVESGGGLVQAGGSLRLSCAASGRTSYVYAMGWYRQAPGKERELVAAITSSGASTYYADSVKGRFTISRDNAKNTVYLQMNSLKPEDTAVFYCAAETYPVWGVAFYYWGQGTQVTVSS has a reported polyreactivity (PSR sort gate) of high polyreactivity

Reported polyreactivity (PSR sort gate) of QVQLVESGGGLVQAGGSLRLSCAASGSTSRTYAMGWYRQAPAKERELVAASSSSGGRTYYADSVKGRFTISRDNAKNTVYLQMNSMKPEDTAVYYCNARTYSYRGYNYWGQGTQVTVSS : high polyreactivity

The recorded polyreactivity (PSR sort gate) for entry QVQLVESGGALHQAGGSLRLNCAASGRTFGANAMGWYRQAPGKERELVAAISSSDDSTYYADSVKGRFTISRDNAKKTVYLQMNSLKPEDTAVYYCAAEDVYRQLDYWGQGTQVTVSS equals low polyreactivity
